Would you kindly list IC50 for each of these molecules?
Tested on: Plasmodium falciparum
Assay protocol: microbe, parasite or virus in culture
Condition context: Dd2, Erythrocyte, 72 h
Description: Antiplasmodial activity against intra-erythrocytic stage of multi-drug resistant Plasmodium falciparum Dd2 infected in erythrocytes assessed as inhibition of parasite growth by measuring HRP2 level after 72 hrs by ELISA
One number for each entry, in nM.

Previously resolved entries follow.
Molecule | Uom | Numeric result
O=CN(CC1CCN(c2ncc(C(=O)NO)cn2)CC1)C1(C(=O)NCCc2c[nH]c3ccccc23)CCNC1 (configuration not stated) | nM | 69
CC(=O)N(CC1CCN(c2ncc(C(=O)NO)cn2)CC1)C1(C(=O)NC(C)(C)C)CCNC1 (configuration not stated) | nM | 700

Please give IC50 for each item listed below.
1. O=C(NO)c1cnc(N2CCC(CNCc3nnnn3Cc3ccccc3)CC2)nc1
2. CC(C)(C)n1nnnc1CNCC1CCN(c2ncc(C(=O)NO)cn2)CC1
3. O=C(NO)c1cnc(N2CCC(CNCc3nnnn3C3CCCCC3)CC2)nc1

290
190
290

Please give IC50 for each item listed below.
1. O=C(NO)c1cnc(N2CCC(CNCc3nnnn3CCc3c[nH]c4ccccc34)CC2)nc1
2. CC(=O)N(CC1CCN(c2ncc(C(=O)NO)cn2)CC1)C1(C(=O)NCc2ccccc2)CCOC1 (configuration not stated)
3. CC(C)(C)CC(C)(C)n1nnnc1CNCC1CCN(c2ncc(C(=O)NO)cn2)CC1
4. CC(=O)N(CC1CCN(c2ncc(C(=O)NO)cn2)CC1)C1(C(=O)NCCc2c[nH]c3ccccc23)CCNC1 (configuration not stated)

230
160
190
280

Please give IC50 for each item listed below.
1. CN(C)c1ccc(C(=O)N(CC(=O)NCc2ccccc2)CC2CCN(c3ncc(C(=O)NO)cn3)CC2)cc1
2. CC(C)c1ccc(C(=O)N(CC(=O)NCc2ccccc2)CC2CCN(c3ncc(C(=O)NO)cn3)CC2)cc1
3. CC(=O)N(CC1CCN(c2ncc(C(=O)NO)cn2)CC1)C1(C(=O)NCc2ccccc2)CCNC1 (configuration not stated)
4. Cc1ccc(C(=O)N(CC(=O)NC2CCCCC2)CC2CCN(c3ncc(C(=O)NO)cn3)CC2)c(C)c1
5. Cn1cc(CNCC2CCN(c3ncc(C(=O)NO)cn3)CC2)c2ccccc21 [QUISINOSTAT]
6. CC(C)c1ccc(C(=O)N(CC(=O)NC2CCCCC2)CC2CCN(c3ncc(C(=O)NO)cn3)CC2)cc1
7. O=CN(CC1CCN(c2ncc(C(=O)NO)cn2)CC1)C1(C(=O)NCc2ccccc2)CCNC1 (configuration not stated)
8. O=C(NO)c1cnc(N2CCC(CNCc3nnnn3C3CCCC3)CC2)nc1

62
180
310
120
2
87
47
130

###

Test system: Plasmodium falciparum
Assay protocol: microbe, parasite or virus in culture
Condition context: 3D7, Erythrocyte, 72 h
Description: Antiplasmodial activity against intra-erythrocytic stage of chloroquine-sensitive Plasmodium falciparum 3D7 infected in erythrocytes assessed as inhibition of parasite growth by measuring HRP2 level after 72 hrs by ELISA
Would you kindly list IC50 for each of these compounds?
Answers are plain numbers, in nM.

Previously resolved entries follow.
Compound | Target system | IC50 [nM]
CC(=O)N(CC1CCN(c2ncc(C(=O)NO)cn2)CC1)C1(C(=O)NCc2ccccc2)CCOC1 (stereo not given) | Plasmodium falciparum | 100
O=C(NO)c1cnc(N2CCC(CNCc3nnnn3Cc3ccccc3)CC2)nc1 | Plasmodium falciparum | 180
Cc1ccc(C(=O)N(CC(=O)NC2CCCCC2)CC2CCN(c3ncc(C(=O)NO)cn3)CC2)c(C)c1 | Plasmodium falciparum | 55
CC(C)c1ccc(C(=O)N(CC(=O)NCc2ccccc2)CC2CCN(c3ncc(C(=O)NO)cn3)CC2)cc1 | Plasmodium falciparum | 150

Now let's try a different one.
Give me measured IC50, please, for this compound: CC(=O)N(CC1CCN(c2ncc(C(=O)NO)cn2)CC1)C1(C(=O)NCc2ccccc2)CCNC1 (stereo not given)
160
